Test system: MCF-7 (breast cancer)
Experiment: MTT cytotoxicity assay, MCF-7 cells
Type: cell-based, human
Details: Homo sapiens, MCF7; MTT, 72 h, mean ± SD (n = 3)
Provide the recorded IC50 for the entries that follow.

Take a look at these entries with their results.
- molecule: "CC(C)[C@@H](C)C=C[C@@H](C)[C@H]1CC[C@@]2(O)C3=CC(=O)C4=CC(=O)CC[C@]4(C)[C@H]3CC[C@]12C"
  property.measured: "IC50"
  result: "11.4 µM"
- molecule: "CC1(O)CC2OC23C(C)(C)C(Cl)CCC3(C)C1C(=O)O (stereo not shown)"
  property.measured: "IC50"
  result: "> 40 µM"
- molecule: "CC(=O)OC(C)C(C)=CC=CC1(C)OC(=O)C(C)C1O (stereo not shown)"
  property.measured: "IC50"
  result: "> 40 µM"
- molecule: "CCCC(O)C1=C(C)C(=O)CC1C (stereo not shown)"
  property.measured: "IC50"
  result: "> 40 µM"
- molecule: "CCCC(O)C1=C(C)C(=O)C(C)C1 (stereo not shown)"
  property.measured: "IC50"
  result: "> 40 µM"

Your task in this section: give IC50 for each listed record.
1. COc1cccc2c1C(=O)c1c(O)c3c(c(O)c1C2=O)C[C@@](O)(C(=O)CO)C[C@@H]3O[C@H]1C[C@H](N)[C@H](O)[C@H](C)O1 [Adriamycin, reference compound]
2. CC(C)[C@@H](C)/C=C/[C@@H](C)C1CCC2C3=CC(=O)OC4=CC(=O)CC[C@]4(C)C3CC[C@@]21C (stereo partly shown)
3. CC(C)C12CC1C(C)(O)CC2=O (stereo not shown)
4. CC(C)[C@@H](C)/C=C/[C@@H](C)[C@H]1CCC(=O)[C@]23CC(=O)C4=CC(=O)CC[C@]4(C)[C@H]2CC[C@]13C

1. 1.5 µM
2. > 40 µM
3. > 40 µM
4. 3.6 µM

With MCF-7 (breast cancer) as the test system, C/C(=C\C=C\[C@]1(C)OC(=O)[C@@H](C)[C@@H]1O)[C@H](C)O showed IC50 of > 40 µM

====

Tested on: SF-268 (CNS cancer)
Experiment: MTT cytotoxicity assay, SF-268 cells
Assay type: cell-based, human
Settings: Homo sapiens, SF-268, 72 h, SF268 cells, c 2.00 μM, triplicate values; read-out: cell inhibition
property.measured: inhibition at 2 µM (%)
Answers are plain numbers, in %.

Before answering, review these 2 worked examples.
- compound: "C/C(=C\\C=C\\[C@]1(C)OC(=O)[C@@H](C)[C@@H]1O)[C@H](C)O"
  target.of.assay: "SF-268 (CNS cancer)"
  inhibition at 2 µM (%): 4.41
- compound: "CC1(O)CC2OC23C(C)(C)C(Cl)CCC3(C)C1C(=O)O (stereo not drawn)"
  target.of.assay: "SF-268 (CNS cancer)"
  inhibition at 2 µM (%): 5.06

With those in mind, consider the next compound.
The recorded inhibition at 2 µM for entry CCCC(O)C1=C(C)C(=O)C(C)C1 (stereo not drawn) equals 12

====

System: MCF-7 (breast cancer)
Test: MTT cytotoxicity assay, MCF-7 cells
Assay type: cell-based, human
Details: Homo sapiens, MCF7, 72 h, MCF-7, c 16.00 μM, three replicates; read-out: cell inhibition
property.measured: inhibition at 16 µM (%)
One number for each entry, in %.

Examples with answers:
- molecule: "CC(C)[C@@H](C)C=C[C@@H](C)[C@H]1CC[C@@]2(O)C3=CC(=O)C4=CC(=O)CC[C@]4(C)[C@H]3CC[C@]12C"
  inhibition at 16 µM [%]: 72.4
- molecule: "CC(C)[C@@H](C)/C=C/[C@@H](C)C1CCC2C3=CC(=O)OC4=CC(=O)CC[C@]4(C)C3CC[C@@]21C (stereo partly drawn)"
  inhibition at 16 µM [%]: 31.4
- molecule: "CC1(O)CC2OC23C(C)(C)C(Cl)CCC3(C)C1C(=O)O (stereo not drawn)"
  inhibition at 16 µM [%]: 18.9

Please give inhibition at 16 µM, item by item, for the list that follows.
1. CC(C)[C@@H](C)/C=C/[C@@H](C)[C@H]1CCC(=O)[C@]23CC(=O)C4=CC(=O)CC[C@]4(C)[C@H]2CC[C@]13C
2. CCCC(O)C1=C(C)C(=O)CC1C (stereo not drawn)
3. CC(=O)OC(C)C(C)=CC=CC1(C)OC(=O)C(C)C1O (stereo not drawn)
4. C/C(=C\C=C\[C@]1(C)OC(=O)[C@@H](C)[C@@H]1O)[C@H](C)O
5. CCCC(O)C1=C(C)C(=O)C(C)C1 (stereo not drawn)

81
27.3
29.1
17.4
30.5

Summary: COc1cccc2c1C(=O)c1c(O)c3c(c(O)c1C2=O)C[C@@](O)(C(=O)CO)C[C@@H]3O[C@H]1C[C@H](N)[C@H](O)[C@H](C)O1 [Adriamycin, reference compound] , MCF-7 (breast cancer), inhibition at 16 µM = 97
